Each entry below carries its recorded Enzyme Activity Endpoint Assay (purified): Fab'2.
target: pooled human IgG
testReadout: Enzyme Activity Endpoint Assay (purified): Fab'2 (ng/µL)

protein	unitInfo	dataValue
PRT-240 (protein) MEVVEVWPYGQNPNGKTEILSQTEDSESLQRLRDIEDFQAEKKMQNVVYTKWLDGVDVKDHDFRKIVDGDYAYYATPLLNGRGFYDINKDFNRDSDKCAAAVAANMFHYWLDINRDNVDRFLRQNPEKHGIIELPDGQLKLSDFLNTYESDHGYRDKSKLFDFISNAFNGPVWADKLLDNYINGYGYNKKYGRTIEDPTKNTSKFNFFKEVFNEKILTNNHQIRNQNEFSVLLSEALYTGKAIGLAYGPGGLRHSLGHIISVWGADLDADGNVVAIYVTDSDDKKLTIGDERVGLKRYKISTDDNNRLRLTTYEETHNTGAQIRGLETLDTGKYAWADYFDKTEQTGTDQAEQLEHHHHHH	ng/µL	0
PRT-123 (protein) MRNATEAYNKESPHTITSVWTKGVTPPTPEDFRYNNEDVLHAPYVANQGWYDITKTFDGKDNLLCGAATAGNMLHWWFDQNKEEIERYLKKHPEKQKIIFNNQELFDVKAAIDTKDSQTNSKLFNYFRDKAFPNLSARQLGVMPDLVLDMFINGYYLNLGKTQSTDVNRPYQDKDKRGGIFDAVFTRGDQTTLLTARHDLKNKGLNEISDLIKQELTEGKALALSHTYANVRINHVINLWGADFDAEGNLIAIYVTDSDANASIGMKKYFVGVNANGKVAISAKKIEGDNIGAQVLGLFTLSTGQDIWQKLS	ng/µL	468
PRT-117 (protein) MRNATEAYAKEVPHTITSVWTKGVTPPTPEQFTYQNEDVFHAPYLANQGWYDITKTFNGKDNLLCGAATAGNMLHWWFDQNKEEIERYLSKHPEKQKIIFNNQELFDLKAAIDTKDSQTNSALFNYFRDKAFPNLSARQLGVMPDLVLDMFINGYYLNVFKTQSTDVNRPYQDKDKRGGIFDAVFTRGDQTTLLTARHDLKNKGLNDISDLIKQELTEGKALALSHTYANVSISHVINLWGADFNAEGNLEAIYVTDSDANASIGMKKYFVGVNTAGKVAISAKKIEGENIGAQVLGLFTLSSGKDIWEQLS	ng/µL	663
PRT-148 (protein) MANQEIRYSEVTPYHVTSVWTKGVTPPANFTQGEDVFHAPYVANQGWYDITKTFNGKDDLLCGAATAGNMLHWWFDQNKDQIKRYLEEHPEKQKINFNGEQMFDVKEAIDTKNHQLDSKLFEYFKEKAFPYLSTKHLGVFPDHVIDMFINGYRLSLTNHGPTPVKRQSKDPRGGIFDAVFTRGDQSKLLTSRHDFKEKNLKEISDLIKKELTEGKALGLSHTYANVRINHVINLWGADFDSNGNLKAIYVTDSDSNASIGMKKYFVGVNSAGKVAISAKEIKEDNIGAQVLGLFTLSTGQDSWNKTN	ng/µL	764

Source listed as patent US20250027068.
